Entries and their glycan array binding signal (z-score)
Molecular target: Fuc(a1-2)[GalNAc(a1-3)]Gal(b1-3)GlcNAc(b1-2)Man(a1-3)[Fuc(a1-2)[GalNAc(a1-3)]Gal(b1-3)GlcNAc(b1-2)Man(a1-6)]Man(b1-4)GlcNAc(b1-4)GlcNAc
Assay: glycan array binding signal (z-score within array); higher = stronger binding
Conditions: glycan notation: IUPAC condensed, linker removed
Shown is part of a subset that was picked to be rich in the strongest signals.
PROPERTY MEASURED: glycan array binding signal (z-score)

BINDER	PROPERTY MEASURED	MEASURED VALUE
Als3-41 (Candida albicans) (protein) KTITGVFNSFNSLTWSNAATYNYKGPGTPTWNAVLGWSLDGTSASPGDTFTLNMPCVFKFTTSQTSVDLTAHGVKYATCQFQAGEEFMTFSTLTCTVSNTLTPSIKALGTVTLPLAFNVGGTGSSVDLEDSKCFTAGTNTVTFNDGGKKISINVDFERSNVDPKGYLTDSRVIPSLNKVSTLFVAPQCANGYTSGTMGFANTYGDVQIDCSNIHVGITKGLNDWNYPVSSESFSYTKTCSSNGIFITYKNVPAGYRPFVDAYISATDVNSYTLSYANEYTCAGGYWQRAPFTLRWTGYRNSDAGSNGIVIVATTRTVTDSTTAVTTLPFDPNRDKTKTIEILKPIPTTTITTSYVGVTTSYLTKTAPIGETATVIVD	glycan array binding signal (z-score)	-0.203
SAG3 (Toxoplasma gondii), Q9BJ39 (protein) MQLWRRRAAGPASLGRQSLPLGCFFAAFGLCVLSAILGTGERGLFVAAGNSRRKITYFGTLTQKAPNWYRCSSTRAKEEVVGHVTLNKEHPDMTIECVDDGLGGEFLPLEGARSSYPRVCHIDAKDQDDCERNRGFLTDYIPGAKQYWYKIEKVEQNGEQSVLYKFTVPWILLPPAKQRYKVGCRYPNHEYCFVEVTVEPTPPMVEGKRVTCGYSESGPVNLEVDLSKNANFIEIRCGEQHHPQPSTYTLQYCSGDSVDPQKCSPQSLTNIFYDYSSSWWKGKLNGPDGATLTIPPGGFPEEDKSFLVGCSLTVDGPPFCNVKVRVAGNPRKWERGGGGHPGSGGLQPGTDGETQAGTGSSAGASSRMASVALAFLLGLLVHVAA	glycan array binding signal (z-score)	-0.473
SSR1 (Sclerotium rolfsii), A0A0M3KL30 (protein) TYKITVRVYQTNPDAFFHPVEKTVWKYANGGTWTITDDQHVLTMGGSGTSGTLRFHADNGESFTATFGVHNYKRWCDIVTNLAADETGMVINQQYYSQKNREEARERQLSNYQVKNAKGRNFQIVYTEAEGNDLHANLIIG	glycan array binding signal (z-score)	0.338
Wzz (Escherichia coli) (protein) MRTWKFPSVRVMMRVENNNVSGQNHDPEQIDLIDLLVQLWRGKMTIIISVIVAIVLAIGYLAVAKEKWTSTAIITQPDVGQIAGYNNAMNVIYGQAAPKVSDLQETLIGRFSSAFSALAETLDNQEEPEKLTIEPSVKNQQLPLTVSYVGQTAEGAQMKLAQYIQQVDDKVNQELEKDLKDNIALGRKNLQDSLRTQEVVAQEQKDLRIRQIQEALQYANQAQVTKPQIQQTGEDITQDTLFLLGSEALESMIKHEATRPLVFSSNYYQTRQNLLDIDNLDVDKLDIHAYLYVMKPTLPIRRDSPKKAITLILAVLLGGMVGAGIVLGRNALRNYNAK	glycan array binding signal (z-score)	-0.965
SAG1 (Toxoplasma gondii), P13664 (protein) MSVSLHHFIISSGFLTSMFPKAVRRAVTAGVFAAPTLMSFLRCGVMASDPPLVANQVVTCPDKKSTAAVILTPTENHFTLKCPKTALTEPPTLAYSPNRQICPAGTTSSCTSKAVTLSSLIPEAEDSWWTGDSASLDTAGIKLTVPIEKFPVTTQTFVVGCIKGDDAQSCMVTVTVQARASSVVNNVARCSYGADSTLGPVKLSAEGPTTMTLVCGKDGVKVPQDNNQYCSGTTLTGCNEKSFKDILPKLTENPWQGNASSDKGATLTIKKEAFPAESKSVIIGCTGGSPEKHHCTVKLEFAGAAGSAKSAAGTASHVSIFAMVIGLIGSIAACVA	glycan array binding signal (z-score)	-0.505
